# experiment-notes: yeast display, Sf9 membrane polyspecificity reagent, FACS + sequencing; frameworks hold sequencing errors

- macromolecule-sequence: "QVQLVESGGGLVQAGGSLRLSCAASGSIFANNVMGWYRQAPGKEREFVAAISWSGGRTYYADSVTGRFTISRDNAKNTVYLQMNSLKPEDTAVYYCARRPRAWGQGTQVTVSS"
  polyreactivity (PSR sort gate): "high polyreactivity"
- macromolecule-sequence: "QVQLVESGGGVVQAGGSLRLSCAASGRIFRYTMGWYRQAPGKETELVADITRHGGSTYYADSVKGRFTISRDNAKNTVYLQMNSLKPEDTAVYYCAADHLSYRRRYEYWGQGTQVTVSS"
  polyreactivity (PSR sort gate): "low polyreactivity"
- macromolecule-sequence: "QVQLVESGGGLVQAGGSLRLSCAASGIIFTRYVMGWYRQAPGKQRELVAVISRRGGTTYYADSVKGRFTISRDNAKNTVYLQMNSLKPEVTAVYYCNTDGYRYPGSGINYYYWGQGTQVTVSS"
  polyreactivity (PSR sort gate): "high polyreactivity"
- macromolecule-sequence: "QVQLVESGGGLVQAGGSLRLSCDASGFTFHPYTMGWYRQAPGKERELVASISWGGGSTYYADSVKGRFTISRDNAKNTVYLQMKSLNPEDTAVYYCAKDITYIYYYWGQGSQVTVSS"
  polyreactivity (PSR sort gate): "low polyreactivity"
- macromolecule-sequence: "QVQLVESGGGLVQAGGSLRLSCAASGRTFTYNAMGWYRQAPGKERELVAAISRSGGRTYYADSVKGRFTISRDNAKNTVYLQMNSLKPEDTAVYYCNTDGYYTTAKYGYWGQGTQVTVSS"
  polyreactivity (PSR sort gate): "high polyreactivity"
- macromolecule-sequence: "QVQLVESGGGLVQAGGSLRLSCAASGSNFRYYAMGWYRQAPGTERELVADISSGGSTYYADSVKGRFTISRDNAKNTVYLQMNRLKPEDTAVYYCKADYYAYPWTNDYWGQGTQVTVSS"
  polyreactivity (PSR sort gate): "high polyreactivity"
- macromolecule-sequence: "QGLLVQSGGGLVQAGGSLRLSCAASGFTFRFYAMLWYRQAPGNERELVAAISSTGSTNYADSVKARCTISRDNAKNTVYLQKNSLKPEDTAVYYCNTDYYNRYYDWLIWYYYWGQGTQVTVSS"
  polyreactivity (PSR sort gate): "high polyreactivity"
- macromolecule-sequence: "QVQLVESGGGLVQAGGSLRLSCAASGRIFYYYAMGWYRQAPGKERELVAAITRRGGSTYYADSVKGRFTISRDNAKNTVYLQLNSLKPEDTAVYYCAKPDRTGWLDGDYWGQGTQVTVSS"
  polyreactivity (PSR sort gate): "low polyreactivity"
- macromolecule-sequence: "QVQLVESGGGLVQAGGSLRLSCAASGRIFSAYAMGGYRQAPGKGRELVAAISYSGGSTYYADSVKGRFTISRDNAKNTVYLQMNSLKPEDTAVYYCAASGPRWWRFGYWGQGTQVTVSS"
  polyreactivity (PSR sort gate): "low polyreactivity"
- macromolecule-sequence: "QVQLVESGGGLVQAGGSLRLSCAASGRIFNQYGMGWYRQAPGKERELVAAIRSGDSTNYADSVKGRFTISRDNAKNTVYLQRNSLKPEDTAVYYSARDRPGDYAGYDYWGQGTQVTVSS"
  polyreactivity (PSR sort gate): "low polyreactivity"
- macromolecule-sequence: "QVQLVESGGGLVQAGGSLRLSCADSGTIFALYAMGWYRQAPGKEREFVAAIRRGTSTKYADSVKGRFTISRDNAKNTVYLQMNSLKPEDTAVYYCNARYYYSSSISRWYDYWGQGTQVTVSS"
  polyreactivity (PSR sort gate): "high polyreactivity"

---

# experiment-notes: yeast display, Sf9 membrane polyspecificity reagent, FACS + sequencing; frameworks hold sequencing errors

- macromolecule-sequence: "QVQLVESGGGLVQAGGSLRLSCAASGYTFRYYAMVWYRQAPGKEREMVAAINGGDITNYADSVKGRFTISRDNAKNTVYLQMNSLKPVDTAVYYCAADGEDSLWTCYDYDYWGQGTQVTVSS"
  polyreactivity (PSR sort gate): "low polyreactivity"
- macromolecule-sequence: "QVQLVESGGGLVQAGGSLRLSCAASGSIFSQNAMGWYRQAPGKEREFVAAIRWSAGSTYYADSVKGRFTISRDNAKNTVYLQMNSLKPEDTAVYYCNAALNVSGHYPNDYWGQGTQVTVSS"
  polyreactivity (PSR sort gate): "low polyreactivity"
- macromolecule-sequence: "QVQLVESGGGLFKAGGSLRLSCAASGLIFWGYTMAWSRQAPGKERELVAAISRRGGRTYYAASVMGRFTISRDNAKNTVYLQMNTLKPEDTAVDYCKADITSSGPKSDYWGQGTQVTVSS"
  polyreactivity (PSR sort gate): "high polyreactivity"
- macromolecule-sequence: "QVQHVESGRGLVQAGGSLRLSCAASGSIFRWYTMGWYRQAPGKERELVAAITSGGTTKYADSVKGRFTISRDNAKNTVYLQMNSLKPEDTAVYYCARRHRYRYDWGQGTQVTVSS"
  polyreactivity (PSR sort gate): "high polyreactivity"
- macromolecule-sequence: "QVQLVESGGGLVQAGGSLRLSCAASGSTFRKYAMGWYRHAPGKEREFVAAITWSTGTTYYADSVKGRFTISRDHAKNTVYLQMNSLKPEDTAVYDCAADSQPPHELYESIEHESWGQGTQVTVSS"
  polyreactivity (PSR sort gate): "low polyreactivity"

---

# experiment-notes: yeast display, Sf9 membrane polyspecificity reagent, FACS + sequencing; frameworks hold sequencing errors

- macromolecule-sequence: "QVQLVESGGGLVQAGGSLRISCAASGRTFGIYAMGWYIKGPGKERELVADITIGGSTFYADSVKGRFTISRDNAKNTVYLPMNSLKPEDTAVYYCYDDVVVQYYFTYYRFFTYDYWGQGTQVTVSS"
  polyreactivity (PSR sort gate): "low polyreactivity"
- macromolecule-sequence: "QVQLVESGGGLVQAGGSLRLSCAASGIIYDAYAMGWYRQAPGKERELVAAISSGGSTYYADSVKGRFTISRDNAKNTVSLQMNSLKPEDTAVYYCAAETEYPSWYDYWGQGTQVTVSS"
  polyreactivity (PSR sort gate): "low polyreactivity"
- macromolecule-sequence: "QVQLVESGGGLVQAGGSLRLSCAASGLTFAWYAMGWYRQAPGKARELVAVISNGGSTNDADSVKRRFTISRDNAKNTVYLQMNSLKPDDTAVYYCAAGWVWSGNDYYYWGQGTQVTVSS"
  polyreactivity (PSR sort gate): "low polyreactivity"
- macromolecule-sequence: "QVQLVESGGGLVQAGGSLRLSCAASGFSFSSYAMGWYRQAPGTERELVATISVNGGSTNYADSVKGRFTISRDNAKNTVYLQMNSLIPEDTAVYYCNAKSYTRRSYYTPTVPGDYWGQGTQVTVSS"
  polyreactivity (PSR sort gate): "low polyreactivity"

---

# experiment-notes: yeast display, Sf9 membrane polyspecificity reagent, FACS + sequencing; frameworks hold sequencing errors

- macromolecule-sequence: "QVQLVESGGGLVQAGGSLRISCAASGFSFRYYAMGWYRQAPGKERELVAAISGSGGSTYYADSVKGRFTISRDNAKNTVYLQMNSLKPEDTAVYYCARYYTYREYDYWGQATQVTVSS"
  polyreactivity (PSR sort gate): "high polyreactivity"
- macromolecule-sequence: "QVQLVESGGGLVQAGGSLRLSCAASGSIFEWNDMGWYRQAPGKEREFVAAITSTDDGTYYADSVKGRFTISRDNAKNTVYLQMNSLKPEVTAVYYCAVDYWDVPYYWGQGTQVTVSS"
  polyreactivity (PSR sort gate): "low polyreactivity"
- macromolecule-sequence: "QVQLVESGGGLVQAGGSLRLSCAASGRIFYRYAMGWYRQAPGKERELVAAISRNGGSTNYADSVKGRFTISRDNAKNTVYLQMNSLKPEDTAVYYCAARPPTTRPYDYDYWGQGTQVTVSS"
  polyreactivity (PSR sort gate): "high polyreactivity"
- macromolecule-sequence: "QVQLVESGGGLVQAGGSLRLSCAASGTFFGYAMGWYRQAPGKERELVAAITSGGSTYYADSVKGRFTISRDNAKNTVYLQMNSLKPEDTAVYYCARVYSRWSYRYDYWGQGTQVTVSS"
  polyreactivity (PSR sort gate): "low polyreactivity"
- macromolecule-sequence: "QVQLVESGGGLVQAGGSLRISCASSGNTFTSYAMGWYRQAPGKASELVASIDSDDSTNYADSVKGRFTISRDNAKNTDYFQMNSLKPEETAVFYCAASDNDDWYYVYHYDYWVQGTQVTVSS"
  polyreactivity (PSR sort gate): "low polyreactivity"

---

# experiment-notes: yeast display, Sf9 membrane polyspecificity reagent, FACS + sequencing; frameworks hold sequencing errors

- macromolecule-sequence: "QVQLVESGGGLVQAGGSLRLSCAASGIIYYANVMGWYRQAPGKERELVAGISRNGGRTYYADSVKGRFTISRDNAKNTVYLQMNSLKPEDTAVYYCAARGSYTSIFDYWGQGTQVTVSS"
  polyreactivity (PSR sort gate): "high polyreactivity"
- macromolecule-sequence: "QVQLVESGGGLVQAGGSLRLSCAASGITFVYYAMGWYRQAPGKERELVAAISVSGGSTYYADSVKGRFTISRDNAKNTVYLQMNSLKPEDTAVYYCAADGYSGIGVREGYWGQGTQVTVSS"
  polyreactivity (PSR sort gate): "high polyreactivity"
- macromolecule-sequence: "PVQLVESGGGLVQAGGSLRLSCAASGITIYYYGMGWYRQPPGKERELVAAITTGVNTNYADSVKGRFTISRDNAKITVYLQMNSLKPEDTAVYYCAAEYRIPYFFTYGYWGQGTQVTVSS"
  polyreactivity (PSR sort gate): "high polyreactivity"
- macromolecule-sequence: "QVQLVESGGGLVQAGGSLRISSAASGRMLYSYAMGWYRQAPGKESEFVAAIRRSGGSTYYADSVKGRFTISRDNAKNTVYLQMNSLKPEDTAFYYCAAGRRYSGSYDYWGQGTQVTVSS"
  polyreactivity (PSR sort gate): "high polyreactivity"
- macromolecule-sequence: "QVQLVESAGGLVQAGGSLRLSCAASGSIFDDYAMGWYRQAPGKERELVAAISDSGGSTSYADSVKGRFTISRDNAKNTVYLQMNSLKPEDTAVYYCNADRDDDYDYWGQGTQVTLSS"
  polyreactivity (PSR sort gate): "low polyreactivity"
- macromolecule-sequence: "QVQLVESGGGLVQAGGSLRLSCAASGRTFRYYAMVWYRQAPGKEREWVASISSSGARTYYADSVKGRFTISRDNAKNTVYLRMNSQKPEDSAVYYCAASQRSGHPSYDYWGQGTQVTVSS"
  polyreactivity (PSR sort gate): "high polyreactivity"
- macromolecule-sequence: "QLQLVESGGGLVQAGGSLRLSCAASGLTFQYYAMGWYRQAPGKERELVAAISTSGGSTYYADSVKGRFTISRDNAKNTVYLQMNSLKPEDTAVYYCAARGPGYPRIWRKYGYWGQGTQVTVSS"
  polyreactivity (PSR sort gate): "high polyreactivity"
- macromolecule-sequence: "QVQLVESGGGLVQAGGSLRLSCAASGITFDKYPMGRYRPAPGKDRELVAAISGSDGSTYYADSVKGRFTISRDNAKNSVYVQMNSLKPDDTAVYDCAAESVYAGTYEYDYWGQGTQVTVSS"
  polyreactivity (PSR sort gate): "low polyreactivity"
- macromolecule-sequence: "QVQLVESGGGLVQAGGSLRLSCAASGSTFSPYAMGWYRQSPGKEMELVAVITSSGGDTYYADSVKGRFTISRDNAKNTVYLQMNSLKPEDTAVYYCAADWWVLGQLWFDYWGQGTQVTVSS"
  polyreactivity (PSR sort gate): "low polyreactivity"
- macromolecule-sequence: "QVQLVESGGGLVQAGGSLRLSCAASGSTFYSNAMGWYRQAPGKERELVAAISRRGSSTYYADSVKGRFTISRDNAKNTVYLQMNSLKPEDTAVYYCNAVGTGGYSSEYGYWGQGTQVTVSS"
  polyreactivity (PSR sort gate): "high polyreactivity"
- macromolecule-sequence: "QVQLVESGGGLVQAGGSLRLSCAASGSIFRYNAMGWYRQAPGKERELVAAITRSGGRTYYADSVKGRFTISRDNAKNTVYLQMNSLKPEDTAVYYCAAKGYTYGLTYDYWGQGTQVTVSS"
  polyreactivity (PSR sort gate): "high polyreactivity"
